Ref: ChEMBL document CHEMBL1155507

# Ratio values compiled below
system: Caco-2; assay: Efflux ratio of permeability from basolateral to apical over apical to basolateral side in human Caco-2 cells after 21 days; format: ADME, cell-based; conditions: caco-2, 504 h
ENDPOINT NAME: Ratio

>>> observed_result("CNC(=O)N1CCC(CN2C[C@@H](c3ccccc3)N(C3CCN(C4(C)CCN(C(=O)c5c(C)cc(C#N)nc5C)CC4)CC3)C2=O)CC1")
10
>>> observed_result("Cc1ncnc(C)c1C(=O)N1CCC(C)(N2CCC(N3C(=O)N(CC4CCN(S(C)(=O)=O)CC4)C[C@H]3c3ccccc3)CC2)CC1")
38
>>> observed_result("Cc1ncnc(C)c1C(=O)N1CCC(C)(N2CCC(N3C(=O)N(C[C@H]4CC[C@H](O)CC4)C[C@H]3c3ccccc3)CC2)CC1")
61
>>> observed_result("CO[C@H]1CC[C@H](CN2C[C@@H](c3ccccc3)N(C3CCN(C4(C)CCN(C(=O)c5c(C)ncnc5C)CC4)CC3)C2=O)CC1")
13
>>> observed_result("CNC(=O)N1CCC(CN2C[C@@H](c3ccccc3)N(C3CCN(C4(C)CCN(C(=O)c5c(C)ncnc5C)CC4)CC3)C2=O)CC1")
13

###

# half-life values compiled below
assay: Half life in rat at 1 mg/kg, iv; assay type: ADME, organism-based; set-up: dose 1 mg/kg, route intravenous; conditions: in vivo
ENDPOINT NAME: half-life

>>> observed_result("CCO[C@H]1CC[C@H](CN2C[C@@H](c3ccccc3)N(C3CCN(C4(C)CCN(C(=O)c5c(C)ncnc5C)CC4)CC3)C2=O)CC1")
"0.8 h"
>>> observed_result("Cc1ncnc(C)c1C(=O)N1CCC(C)(N2CCC(N3C(=O)N(CC4CCOCC4)CC3c3ccccc3)CC2)CC1 (racemic)")
"1.5 h"
>>> observed_result("Cc1cc(C#N)nc(C)c1C(=O)N1CCC(C)(N2CCC(N3C(=O)N(C4CCOCC4)C[C@H]3c3ccccc3)CC2)CC1")
"5.7 h"
>>> observed_result("Cc1cc(C#N)nc(C)c1C(=O)N1CCC(C)(N2CCC(N3C(=O)N(CC4CCOCC4)C[C@@H]3c3ccccn3)CC2)CC1")
"1 h"

###

experiment: Cmax in rat at 1 mg/kg, po; type: ADME, organism-based; design: dose 1 mg/kg, route oral; details: in vivo
# Cmax values compiled below
ENDPOINT NAME: Cmax (ng/mL)

>>> observed_result("CCO[C@H]1CC[C@H](CN2C[C@@H](c3ccccc3)N(C3CCN(C4(C)CCN(C(=O)c5c(C)ncnc5C)CC4)CC3)C2=O)CC1")
21
>>> observed_result("Cc1cc(C#N)nc(C)c1C(=O)N1CCC(C)(N2CCC(N3C(=O)N(CC4CCOCC4)C[C@@H]3c3ccccn3)CC2)CC1")
38
>>> observed_result("Cc1ncnc(C)c1C(=O)N1CCC(C)(N2CCC(N3C(=O)N(CC4CCOCC4)CC3c3ccccc3)CC2)CC1 (racemic)")
56
>>> observed_result("Cc1cc(C#N)nc(C)c1C(=O)N1CCC(C)(N2CCC(N3C(=O)N(C4CCOCC4)C[C@H]3c3ccccc3)CC2)CC1")
43

###

assay: Intrinsic clearance in human liver microsomes per mg of protein; type: ADME, Microsome
# log10 of microsomal CLint values compiled below
ENDPOINT NAME: log10 of microsomal CLint (log10 of the value in µL/min/mg)

>>> observed_result("Cc1cc(C#N)nc(C)c1C(=O)N1CCC(C)(N2CCC(N3C(=O)N(C[C@H]4CC[C@H](O)CC4)C[C@H]3c3ccccc3)CC2)CC1")
1.53
>>> observed_result("CNC(=O)N1CCC(CN2C[C@@H](c3ccccc3)N(C3CCN(C4(C)CCN(C(=O)c5c(C)ncnc5C)CC4)CC3)C2=O)CC1")
1.11
>>> observed_result("Cc1ncnc(C)c1C(=O)N1CCC(C)(N2CCC(N3C(=O)N(CCC4CCOCC4)C[C@H]3c3ccccc3)CC2)CC1")
1.98
>>> observed_result("CNC(=O)N1CCC(CN2C[C@@H](c3ccccc3)N(C3CCN(C4(C)CCN(C(=O)c5c(C)cc(C#N)nc5C)CC4)CC3)C2=O)CC1")
1.72
>>> observed_result("CO[C@H]1CC[C@H](CN2C[C@@H](c3ccccc3)N(C3CCN(C4(C)CCN(C(=O)c5c(C)ncnc5C)CC4)CC3)C2=O)CC1")
1.84
>>> observed_result("Cc1cc(C#N)nc(C)c1C(=O)N1CCC(C)(N2CCC(N3C(=O)N(C4CCOCC4)C[C@H]3c3ccccc3)CC2)CC1")
1.18
>>> observed_result("COC(=O)N1CCC(CN2C[C@@H](c3ccccc3)N(C3CCN(C4(C)CCN(C(=O)c5c(C)ncnc5C)CC4)CC3)C2=O)CC1")
2.19
>>> observed_result("Cc1cc(C#N)nc(C)c1C(=O)N1CCC(C)(N2CCC(N3C(=O)N(CC4CCOCC4)C[C@H]3c3ccccc3)CC2)CC1")
1.76
>>> observed_result("CCO[C@H]1CC[C@H](CN2C[C@@H](c3ccccc3)N(C3CCN(C4(C)CCN(C(=O)c5c(C)ncnc5C)CC4)CC3)C2=O)CC1")
1.67
>>> observed_result("Cc1ncnc(C)c1C(=O)N1CCC(C)(N2CCC(N3C(=O)N(CC4CCN(S(C)(=O)=O)CC4)C[C@H]3c3ccccc3)CC2)CC1")
2.35
>>> observed_result("Cc1cc(C#N)nc(C)c1C(=O)N1CCC(C)(N2CCC(N3C(=O)N(CC4CCOCC4)C[C@@H]3c3ccccn3)CC2)CC1")
1.26
>>> observed_result("CCCCC1CN(C2CCOCC2)C(=O)N1C1CCN(C2(C)CCN(C(=O)c3c(C)ncnc3C)CC2)CC1 (racemic)")
0.95
>>> observed_result("Cc1cc(C#N)nc(C)c1C(=O)N1CCC(C)(N2CCC(N3C(=O)N(C)C[C@H]3c3ccccc3)CC2)CC1")
1.64
>>> observed_result("CCO[C@H]1CC[C@H](CN2C[C@H](c3ccccn3)N(C3CCN(C4(C)CCN(C(=O)c5c(C)cc(C#N)nc5C)CC4)CC3)C2=O)CC1")
1.60
